Below, each of the compounds is paired with its reported pEC50 value.
molecular target: Peroxisome proliferator-activated receptor delta (Homo sapiens, UniProt Q03181); test: Agonist activity at human PPARdelta expressed in african green monkey CV1 cells by Gal4 transactivation assay
Sequence (Q03181 whole entry, the tested form may be a part): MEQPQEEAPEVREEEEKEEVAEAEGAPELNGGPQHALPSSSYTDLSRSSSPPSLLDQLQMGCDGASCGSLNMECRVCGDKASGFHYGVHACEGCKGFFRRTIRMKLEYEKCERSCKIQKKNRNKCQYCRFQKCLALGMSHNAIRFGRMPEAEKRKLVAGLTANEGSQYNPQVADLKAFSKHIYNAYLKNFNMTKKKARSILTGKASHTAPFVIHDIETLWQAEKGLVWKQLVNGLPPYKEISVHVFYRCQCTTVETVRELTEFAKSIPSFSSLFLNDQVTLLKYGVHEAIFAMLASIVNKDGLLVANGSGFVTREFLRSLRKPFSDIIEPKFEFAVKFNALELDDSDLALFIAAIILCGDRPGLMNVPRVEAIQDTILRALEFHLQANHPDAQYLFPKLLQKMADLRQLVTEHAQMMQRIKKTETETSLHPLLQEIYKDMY
pEC50: −log10 of the molar value.

Example entries and their recorded answers appear below.
1. CCCc1nc2c(C)cc(-c3nc4ccccc4n3C)cc2n1Cc1ccc(-c2ccccc2C(=O)O)cc1 ... < 5.00
2. CCC(NC(=O)c1ccc2cc(C)n(Cc3ccc(-c4ccccc4C(=O)O)cc3)c2c1)c1ccccc1 (centres undefined) ... < 5.00
3. CCC(NC(=O)c1ccc2c(c1)cc(C)n2Cc1ccc(-c2ccccc2C(=O)O)cc1)c1ccccc1 (centres undefined) ... < 5.00
4. Cc1c(C)n(Cc2ccc(-c3ccccc3C(=O)O)cc2)c2ccc(C(=O)NCc3ccccc3)cc12 ... < 5.00
5. CCC(NC(=O)c1ccc2c(c1)c(SC)c(C)n2Cc1ccc(-c2ccccc2C(=O)O)cc1)c1ccccc1 (centres undefined) ... < 5.00
6. Cc1c(C)n(Cc2ccc(-c3ccccc3C(=O)O)cc2)c2ccc(C(=O)NCCCc3ccccc3)cc12 ... < 5.00

Incoming: Please state recorded pEC50 (tested on Peroxisome proliferator-activated receptor delta (Homo sapiens, UniProt Q03181)) of CCC(NC(=O)c1ccc2c(c1)c(C)c(C)n2Cc1ccc(-c2ccccc2C(=O)O)cc1)c1ccccc1 (centres undefined)
Outgoing: < 5.00

Incoming: Please state recorded pEC50 (tested on Peroxisome proliferator-activated receptor delta (Homo sapiens, UniProt Q03181)) of CCCc1nc2ccc(C(=O)NC(CC)c3ccccc3)cc2n1Cc1ccc(-c2ccccc2C(=O)O)cc1 (centres undefined)
Outgoing: < 5.00

Incoming: Please state recorded pEC50 (tested on Peroxisome proliferator-activated receptor delta (Homo sapiens, UniProt Q03181)) of CCCc1c(SC)c2cc(NC(=O)C(CC)c3ccccc3)ccc2n1Cc1ccc(-c2ccccc2C(=O)O)cc1 (centres undefined)
Outgoing: < 5.00
